Numbers sourced from patent US20100022491A1.

Target: Adrenergic β2 (Homo sapiens, UniProt P07550)
Construct: Adherent H292 cells were removed from tissue culture flasks; endogenous in cells; host or cells: H292 cells
Sequence (P07550 whole entry): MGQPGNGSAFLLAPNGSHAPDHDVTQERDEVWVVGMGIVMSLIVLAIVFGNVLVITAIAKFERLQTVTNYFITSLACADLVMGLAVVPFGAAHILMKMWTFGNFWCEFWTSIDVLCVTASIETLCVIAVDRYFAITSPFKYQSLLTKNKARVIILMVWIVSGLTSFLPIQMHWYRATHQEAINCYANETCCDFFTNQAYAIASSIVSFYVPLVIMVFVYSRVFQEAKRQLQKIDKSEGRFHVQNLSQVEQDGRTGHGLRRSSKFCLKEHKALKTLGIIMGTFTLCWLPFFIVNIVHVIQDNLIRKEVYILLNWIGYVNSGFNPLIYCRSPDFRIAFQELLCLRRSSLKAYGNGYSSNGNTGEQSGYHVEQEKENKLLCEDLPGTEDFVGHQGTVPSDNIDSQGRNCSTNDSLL
Assay: Adrenergic β2 mediated cAMP production in H292 cells
Assay type: cell-based
Conditions: H292 cells, cAMP by AlphaScreen, 60 minutes at room temperature, rolipram 300 μM; read-out: β2 pEC50 (converted)
Counter-ions that a name gives are not always drawn.
property_measured: EC50 (nM)

INSERT INTO results (compound, quantitative_readout) VALUES
  ('O=C(CCNCCc1ccccc1Cl)N(CCNCCc1ccc(O)c2[nH]c(=O)sc12)C1CCCCC1 [Example 17]', 1.58),
  ('O=C(CCNCCc1ccccc1)N(CCNCCc1ccc(O)c2[nH]c(=O)sc12)C1CCSCC1 [Example 62, bis-trifluoroacetic acid salt]', 6.31),
  ('O=C(CCNC[C@H](O)c1ccccc1)N(CCNCCc1ccc(O)c2[nH]c(=O)sc12)C1CCCCC1 [Example 75, bis-trifluoroacetic acid salt]', 10),
  ('Cc1cccc(CCNCCC(=O)N(CCNCCc2ccc(O)c3[nH]c(=O)sc23)C2CCCCC2)c1 [Example 14, bis-trifluoroacetic acid salt]', 3.98),
  ('O=C(CCNCCc1ccc(Cl)cc1)N(CCNCCc1ccc(O)c2[nH]c(=O)sc12)C1CCCC1 [Example 28, bis-trifluoroacetic acid salt]', 10),
  ('O=C(CCNCCc1cccc(Cl)c1)N(CCNCCc1ccc(O)c2[nH]c(=O)sc12)C1CCOCC1 [Example 22, bis-trifluoroacetic acid salt]', 2.51),
  ('CC(C)(C)CN(CCNCCc1ccc(O)c2[nH]c(=O)sc12)C(=O)CCNC(C)(C)Cc1ccccc1 [Example 38, bis-trifluoroacetic acid salt]', 63.1),
  ('O=C(CCNCCc1ccccc1)N(CCNCCc1ccc(O)c2[nH]c(=O)sc12)C1CCCC1 [Example 2, bis-trifluoroacetic acid salt]', 3.16),
  ('O=C(CCNCCc1cccc(Cl)c1)N(CCNCCc1ccc(O)c2[nH]c(=O)sc12)C1CCC(F)(F)CC1 [Example 47, bis-trifluoroacetic acid salt]', 3.16),
  ('O=C(CCNCCc1ccccc1)N(CCNCCc1ccc(O)c2[nH]c(=O)sc12)C1CCC(F)(F)CC1 [Example 4, bis-trifluoroacetic acid salt]', 1),
  ('O=C(CCNCCc1ccccc1)N(CCNCCc1ccc(O)c2[nH]c(=O)sc12)C1Cc2ccccc2C1 [Example 41, bis-trifluoroacetic acid salt]', 31.6),
  ('O=C(CCNCCc1ccccc1)N(CCNCCc1ccc(O)c2[nH]c(=O)sc12)C1CCCCC1 [Example 5, bis-trifluoroacetic acid salt]', 2.51),
  ('C[C@H](CNCCC(=O)N(CCNCCc1ccc(O)c2[nH]c(=O)sc12)CC(C)(C)C)c1ccccc1 [Example 11, bis-trifluoroacetic acid salt]', 15.8),
  ('O=C(CCNCCc1ccc(O)c2[nH]c(=O)sc12)N(CCNCCc1ccc(O)c2[nH]c(=O)sc12)C1CCCCCC1 [Example 87, bis-trifluoroacetic acid salt]', 3.16),
  ('O=C(CCNCCc1cccc(F)c1)N(CCNCCc1ccc(O)c2[nH]c(=O)sc12)C1CCCCCC1 [Example 36, bis-trifluoroacetic acid salt]', 2.51),
  ('O=C(CCNCCc1ccc(O)cc1)N(CCNCCc1ccc(O)c2[nH]c(=O)sc12)C1CCCCC1 [Example 34, bis-trifluoroacetic acid salt]', 2),
  ('O=C(CCNCCc1cccc(Cl)c1)N(CCNCCc1ccc(O)c2[nH]c(=O)sc12)C1CCCC1 [Example 30, bis-trifluoroacetic acid salt]', 5.01),
  ('O=C(CCNCCC(F)(F)F)N(CCNCCc1ccc(O)c2[nH]c(=O)sc12)C1CCCCC1 [Example 80, bis-trifluoroacetic acid salt]', 126),
  ('O=C(CCNCCc1cccc(F)c1)N(CCNCCc1ccc(O)c2[nH]c(=O)sc12)CC12CC3CC(CC(C3)C1)C2 [Example 60, bis-trifluoroacetic acid salt]', 20),
  ('O=C(CCNCCc1cccs1)N(CCNCCc1ccc(O)c2[nH]c(=O)sc12)C1CCCCC1 [Example 35, bis-trifluoroacetic acid salt]', 3.98),
  ('COc1cccc(CCNCCC(=O)N(CCNCCc2ccc(O)c3[nH]c(=O)sc23)C2CCCCC2)c1 [Example 70, bis-trifluoroacetic acid salt]', 5.01);
